# Emax values compiled below
# SYSTEM: human GRIN1 (variant NR1-3) and GRIN2D expressed in HEK293 cells (Homo sapiens, UniProt O15399)
# Construct: GenScript (GRIN2D synthesis) SC115601; host or cells: HEK293
# Sequence (O15399 28-1336, other chains not shown): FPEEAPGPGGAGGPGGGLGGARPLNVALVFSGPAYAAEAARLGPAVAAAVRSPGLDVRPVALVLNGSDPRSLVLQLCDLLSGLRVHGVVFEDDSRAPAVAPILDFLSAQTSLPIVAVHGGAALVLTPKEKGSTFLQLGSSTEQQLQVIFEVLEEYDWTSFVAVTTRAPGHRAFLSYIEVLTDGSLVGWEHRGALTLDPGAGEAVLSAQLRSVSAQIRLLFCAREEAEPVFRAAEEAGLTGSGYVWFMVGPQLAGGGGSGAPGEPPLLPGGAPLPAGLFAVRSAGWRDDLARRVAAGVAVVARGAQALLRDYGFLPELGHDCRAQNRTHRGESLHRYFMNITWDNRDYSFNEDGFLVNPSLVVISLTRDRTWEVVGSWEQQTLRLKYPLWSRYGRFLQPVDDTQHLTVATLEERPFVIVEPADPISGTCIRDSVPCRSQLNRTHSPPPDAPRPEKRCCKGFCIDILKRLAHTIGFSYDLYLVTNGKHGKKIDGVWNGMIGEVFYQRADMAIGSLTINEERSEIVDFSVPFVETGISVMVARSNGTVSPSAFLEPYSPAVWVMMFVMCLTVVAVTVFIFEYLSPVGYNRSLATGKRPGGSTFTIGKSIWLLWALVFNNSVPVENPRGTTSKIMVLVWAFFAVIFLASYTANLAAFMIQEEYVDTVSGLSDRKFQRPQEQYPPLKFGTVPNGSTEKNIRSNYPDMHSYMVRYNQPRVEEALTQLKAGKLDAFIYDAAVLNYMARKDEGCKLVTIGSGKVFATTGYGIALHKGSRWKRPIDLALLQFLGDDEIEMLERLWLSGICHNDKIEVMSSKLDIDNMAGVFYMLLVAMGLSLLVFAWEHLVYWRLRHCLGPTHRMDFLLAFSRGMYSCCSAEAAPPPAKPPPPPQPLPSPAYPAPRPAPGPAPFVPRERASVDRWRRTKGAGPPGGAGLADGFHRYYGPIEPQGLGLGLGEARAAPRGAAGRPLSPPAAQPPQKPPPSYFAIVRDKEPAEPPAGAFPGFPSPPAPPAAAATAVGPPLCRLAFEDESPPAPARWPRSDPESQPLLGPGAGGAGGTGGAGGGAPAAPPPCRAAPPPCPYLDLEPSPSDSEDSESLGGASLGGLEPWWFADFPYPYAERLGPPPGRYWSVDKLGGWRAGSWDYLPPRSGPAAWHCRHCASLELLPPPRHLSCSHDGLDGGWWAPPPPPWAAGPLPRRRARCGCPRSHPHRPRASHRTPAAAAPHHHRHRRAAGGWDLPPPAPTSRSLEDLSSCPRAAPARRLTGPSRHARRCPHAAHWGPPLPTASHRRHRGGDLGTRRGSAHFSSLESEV
# PROTOCOL_DETAILS: GluN2D PAM CIQ fluorescence assay (Fluo-8 calcium, FDSS 6000)
# Assay type: cell-based
# EXPERIMENTAL_SETUP: relative to CIQ (100 uM) = 100%, read-out: NR2D Percent CIQ Avg Max Measured Effect

Please review the entries below; each comes with its answer.
Briefly, Emax measured for C[C@@H]1CSc2nc(-c3ccc(C(C)(C)C)nc3)c(C#N)c(=N)n2C1 : > 200%

Briefly, Emax measured for CC(C)(C)c1ncc(-c2nc3n(c(=O)c2C#N)CCCS3)cn1 : 100 to 200%

Briefly, Emax measured for N#Cc1c(-c2ccc(Cl)cc2)nc2n(c1=O)CCS2 : 10 to 50%

Continuing:
Briefly, Emax measured for Cc1nc(C(C)(C)C)ccc1-c1nc2n(c(=O)c1C#N)CCCS2 : 100 to 200%

Briefly, Emax measured for CC(C)(C)c1ccc(-c2nc3n(c(=O)c2C#N)CCCS3)cn1 : 100 to 200%

Briefly, Emax measured for CC(C)(C)c1ccc(-c2nc3n(c(=O)c2C#N)CCCS3)nc1 : 100 to 200%

Briefly, Emax measured for N#Cc1c(-c2ccc(-c3ccccc3)cc2F)nc2n(c1=O)CCCS2 : 10 to 50%

Briefly, Emax measured for CC(C)c1ccc(-c2nc3n(c(=O)c2C#N)CCS3)cc1 : 50 to 100%

Briefly, Emax measured for CC(C)(C)c1ccc(-c2nc3n(c(=O)c2C#N)CCCS3)s1 : 100 to 200%

Briefly, Emax measured for CC(C)(C)c1ccc(-c2nc3n(c(=O)c2C#N)CC2(COC2)CS3)cc1 : 10 to 50%

Briefly, Emax measured for COc1ccc(-c2nc3n(c(=O)c2C#N)CCS3)c(OC)c1 : 50 to 100%

Briefly, Emax measured for CC1CSc2nc(-c3ccc(C(C)(C)C)nc3)c(C#N)c(=N)n2C1 (stereo not shown) : > 200%

Briefly, Emax measured for CC1CSc2nc(-c3ccc(C(C)(C)C)cc3)c(C#N)c(=O)n2C1 (stereo not shown) : 100 to 200%

Briefly, Emax measured for CC1CCSc2nc(-c3ccc(C(C)(C)C)nc3)c(C#N)c(=O)n21 (stereo not shown) : 100 to 200%

Briefly, Emax measured for C[C@@H]1CSc2nc(-c3ccc(C(C)(C)C)nc3)c(C#N)c(=O)n2C1 : > 200%

Briefly, Emax measured for N#Cc1c(-c2ccc(C3CC3)nc2)nc2n(c1=O)CCCS2 : 100 to 200%

Briefly, Emax measured for N#Cc1c(-c2cnc(C3CC3)nc2)nc2n(c1=O)CCCS2 : 100 to 200%

Briefly, Emax measured for CC(C)(C)c1ccc(-c2nc3n(c(=O)c2C#N)C(c2ccccc2)CCS3)cc1 (stereo not shown) : 10 to 50%

Briefly, Emax measured for N#Cc1c(-c2ccc(C(F)(F)F)nc2)nc2n(c1=O)CCCS2 : 10 to 50%
